assay: Volume of distribution in Wistar rat at 1 mg/kg, iv; format: ADME, organism-based; set-up: dose 1 mg/kg, route intravenous; settings: in vivo

# smilesData, Vd
rows = [
    ("CO[C@@H]1C(c2ccc(C#N)c(Cl)c2C)=NN2CC[C@H](O)[C@@H]12", "4.6 L/kg"),
]

---

assay: Skin permeability by silicone and isopropyl myristate (70:30) containing artificial membranes based skin PAMPA method; format: ADME

# smilesData, permeability
measured = [
    ("CO[C@@H]1C(c2ccc(C#N)c(Cl)c2C)=NN2CC(F)(F)C[C@@H]12", "permeable"),
    ("C[C@]12CC[C@H]3[C@@H](CCC4=CC(=O)CC[C@@]43C)[C@@H]1CC[C@@H]2O", "permeable"),
    ("CO[C@@H]1C(c2ccc(C#N)c(Cl)c2C)=NN2CC[C@@H](F)[C@@H]12", "permeable"),
    ("CCO[C@@H]1C(c2ccc(C#N)c(Cl)c2C)=NN2CC[C@H](O)[C@@H]12", "permeable"),
    ("CO[C@@H]1C(c2ccc(C#N)c(Cl)c2C)=NN2CC[C@H](O)[C@@H]12", "permeable"),
]

Provenance of the data: ChEMBL document CHEMBL3351728
